Tested on: Human immunodeficiency virus
experimental.protocol: The inhibition of compound was determined by reverse transcriptase assay using DNA as template
Assay type: functional
quantity.measured: Ki (µM)
Kindly provide the numeric value in µM only, without the unit symbol.

# example entries with known answers
{"compound": "Cc1cn([C@H]2C[C@H](N=[N+]=[N-])[C@@H](COP(=O)(O)OP(=O)(O)OP(=O)(O)O)O2)c(=O)[nH]c1=O [ZIDOVUDINE TRIPHOSPHATE]", "Ki, µM": 84}
{"compound": "Cc1cn([C@H]2C=C[C@@H](COP(=O)(O)OP(=O)(O)OP(=O)(O)O)O2)c(=O)[nH]c1=O [STAVUDINE TRIPHOSPHATE]", "Ki, µM": 70}

# next compound below
// Ki lookup, compound = Cc1cn([C@H]2CC[C@@H](COP(=O)(O)OP(=O)(O)OP(=O)(O)O)O2)c(=O)[nH]c1=O , result: 84
